- TARGET UNDER TEST: MCL-1/Bim interaction (recombinant human MCL-1 protein, residues 171-327; biotinylated human Bim peptide, residues 51-76) (Homo sapiens (Human))
- METHOD SUMMARY: MCL-1/Bim Binding AlphaLISA Assay
- SETTINGS: 0.0625 nM 6xHis-Mcl-1 (171-327), 0.0625 nM biotinylated-Bim peptide
REPORTED ENDPOINT: IC50 (nM)

# count of solved cases: 2
COc1nn(C)cc1C(=O)N[S@@]1(=O)=NC(=O)c2ccc3c(c2)N(C[C@@H]2CC[C@H]2[C@@H](O)/C=C/C[C@H](C)C1)C[C@@]1(CCCc2cc(Cl)ccc21)CO3 0.039
CCc1nn(C)cc1C(=O)N[S@@]1(=O)=NC(=O)c2ccc3c(c2)N(C[C@@H]2CC[C@H]2[C@@H](OC)/C=C/C[C@H](C)C1)C[C@@]1(CCCc2cc(Cl)ccc21)CO3 0.107

[I] CO[C@H]1/C=C/CCC[S@@](=O)(NC(=O)CCc2c(C)cnn2C)=NC(=O)c2ccc3c(c2)N(C[C@@H]2CC[C@H]21)C[C@@]1(CCCc2cc(Cl)ccc21)CO3
[II] CO[C@H]1/C=C/CCC[S@@](=O)(NC(=O)CCn2cncn2)=NC(=O)c2ccc3c(c2)N(C[C@@H]2CC[C@H]21)C[C@@]1(CCCc2cc(Cl)ccc21)CO3
[III] CO[C@H]1/C=C/C[C@H](C)C[S@@](=O)(NC(=O)N2CC(n3ccnc3)C2)=NC(=O)c2ccc3c(c2)N(C[C@@H]2CC[C@H]21)C[C@@]1(CCCc2cc(Cl)ccc21)CO3
Q: List from greatest to least IC50. Output spec: labels arranged per the requested ranking.
Result: I, II, III

###

- TARGET UNDER TEST: MCL-1/Bim interaction (recombinant human MCL-1 protein, residues 171-327; biotinylated human Bim peptide, residues 51-76) (Homo sapiens (Human), UniProt Q07820)
- Sequence (Q07820 171-327): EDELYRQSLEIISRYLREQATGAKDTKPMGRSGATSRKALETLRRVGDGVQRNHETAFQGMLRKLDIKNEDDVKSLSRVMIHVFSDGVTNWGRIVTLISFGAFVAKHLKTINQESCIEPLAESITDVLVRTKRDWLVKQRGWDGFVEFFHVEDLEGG
- METHOD SUMMARY: MCL-1/Bim Binding AlphaLISA Assay
- SETTINGS: 0.0625 nM 6xHis-Mcl-1 (171-327), 0.0625 nM biotinylated-Bim peptide
REPORTED ENDPOINT: IC50 (nM)

# count of solved cases: 2
COMPOUND	IC50 [nM]
COC1CCCn2cc(C(=O)N[S@@]3(=O)=NC(=O)c4ccc5c(c4)N(C[C@@H]4CC[C@H]4[C@@H](OC)/C=C/C[C@H](C)C3)C[C@@]3(CCCc4cc(Cl)ccc43)CO5)cc2C1 (some centres unmarked)	0.055
COCc1oc(C(=O)N[S@@]2(=O)=NC(=O)c3ccc4c(c3)N(C[C@@H]3CC[C@H]3[C@@H](OC)/C=C/C[C@H](C)C2)C[C@@]2(CCCc3cc(Cl)ccc32)CO4)cc1C	0.07

[a] CO[C@H]1/C=C/C[C@H](C)C[S@@](=O)(NC(=O)N2CC3(CCCO3)C2)=NC(=O)c2ccc3c(c2)N(C[C@@H]2CC[C@H]21)C[C@@]1(CCCc2cc(Cl)ccc21)CO3
[b] COc1nn(C)cc1C(=O)N[S@@]1(=O)=NC(=O)c2ccc3c(c2)N(C[C@@H]2CC[C@H]2[C@@H](OC)/C=C/[C@H](OCc2ccccn2)[C@H](C)C1)C[C@@]1(CCCc2cc(Cl)ccc21)CO3
[c] CO[C@H]1/C=C/CCC[S@@](=O)(NC(=O)CCc2ccccc2C(F)(F)F)=NC(=O)c2ccc3c(c2)N(C[C@@H]2CC[C@H]21)C[C@@]1(CCCc2cc(Cl)ccc21)CO3
Q: I would appreciate it if you could sort these 3 compounds by IC50, starting from the smallest number. Output spec: labels arranged per the requested ranking.
Result: a, b, c
(a: 0.051 nM, b: 0.098 nM, c: 3.2 nM)

###

- TARGET UNDER TEST: MCL-1/Bim interaction (recombinant human MCL-1 protein, residues 171-327; biotinylated human Bim peptide, residues 51-76) (Homo sapiens (Human))
- METHOD SUMMARY: MCL-1/Bim Binding AlphaLISA Assay
- SETTINGS: 0.0625 nM 6xHis-Mcl-1 (171-327), 0.0625 nM biotinylated-Bim peptide
pIC50: −log10 of the molar value.
REPORTED ENDPOINT: pIC50

COc1nn(C)cc1C(=O)N[S@@]1(=O)=NC(=O)c2ccc3c(c2)N(C[C@@H]2CC[C@H]2[C@@H](N2CC(OC)C2)/C=C/C[C@H](C)C1)C[C@@]1(CCCc2cc(Cl)ccc21)CO3 9.68

[I] CO[C@H]1/C=C/C[C@H](C)C[S@@](=O)(NC(=O)c2ccc3c(c2)COCC3)=NC(=O)c2ccc3c(c2)N(C[C@@H]2CC[C@H]21)C[C@@]1(CCCc2cc(Cl)ccc21)CC3
[II] CO[C@H]1/C=C/C[C@H](C)C[S@@](=O)(NC(=O)N[C@H]2CCOC2)=NC(=O)c2ccc3c(c2)N(C[C@@H]2CC[C@H]21)C[C@@]1(CCCc2cc(Cl)ccc21)CO3
Q: Lab note: check whether I or II has the lower measured pIC50. // output: label of the selected item
Result: I
(I: 9.63, II: 10.33)

###

- TARGET UNDER TEST: MCL-1/Bim interaction (recombinant human MCL-1 protein, residues 171-327; biotinylated human Bim peptide, residues 51-76) (Homo sapiens (Human))
- METHOD SUMMARY: MCL-1/Bim Binding AlphaLISA Assay
- SETTINGS: 0.0625 nM 6xHis-Mcl-1 (171-327), 0.0625 nM biotinylated-Bim peptide
REPORTED ENDPOINT: IC50 (nM)

# count of solved cases: 3
CCOc1nn(C)cc1C(=O)N[S@@]1(=O)=NC(=O)c2ccc3c(c2)N(C[C@@H]2CC[C@H]2[C@@H](OC)/C=C/C[C@H](C)C1)C[C@@]1(CCCc2cc(Cl)ccc21)CO3 0.03
COc1nn(C)cc1C(=O)N[S@@]1(=O)=NC(=O)c2ccc3c(c2)N(C[C@@H]2CC[C@H]2[C@@H](OC(=O)CC(C)C)/C=C/C[C@H](C)C1)C[C@@]1(CCCc2cc(Cl)ccc21)CO3 0.769
CO[C@H]1/C=C/C[C@H](C)C[S@@](=O)(NC(=O)N2CC(Oc3cccnc3)C2)=NC(=O)c2ccc3c(c2)N(C[C@@H]2CC[C@H]21)C[C@@]1(CCCc2cc(Cl)ccc21)CO3 0.046

[1] COc1nnc(C)cc1C(=O)N[S@@]1(=O)=NC(=O)c2ccc3c(c2)N(C[C@@H]2CC[C@H]2[C@@H](OC)/C=C/C[C@H](C)C1)C[C@@]1(CCCc2cc(Cl)ccc21)CO3
[2] CO[C@H]1/C=C/C[C@H](C)C[S@@](=O)(NC(=O)N[C@@H]2[C@@H]3COC[C@@H]32)=NC(=O)c2ccc3c(c2)N(C[C@@H]2CC[C@H]21)C[C@@]1(CCCc2cc(Cl)ccc21)CO3
Q: Lab note: check whether 1 or 2 has the lower measured IC50. // output: label of the selected item
Result: 1

###

- TARGET UNDER TEST: MCL-1/Bim interaction (recombinant human MCL-1 protein, residues 171-327; biotinylated human Bim peptide, residues 51-76) (Homo sapiens (Human))
- METHOD SUMMARY: MCL-1/Bim Binding AlphaLISA Assay
- SETTINGS: 0.0625 nM 6xHis-Mcl-1 (171-327), 0.0625 nM biotinylated-Bim peptide
pIC50: −log10 of the molar value.
REPORTED ENDPOINT: pIC50

COMPOUND	pIC50
CO[C@H]1/C=C/C[C@H](C)C[S@@](=O)(NC(=O)N2CC(OC(F)F)C2)=NC(=O)c2ccc3c(c2)N(C[C@@H]2CC[C@H]21)C[C@@]1(CCCc2cc(Cl)ccc21)CO3	10.41

[I] CO[C@H]1/C=C/CCC[S@@](=O)(NC(=O)Cc2cn3ccccc3n2)=NC(=O)c2ccc3c(c2)N(C[C@@H]2CC[C@H]21)C[C@@]1(CCCc2cc(Cl)ccc21)CO3
[II] COCCn1cc(C(=O)N[S@@]2(=O)=NC(=O)c3ccc4c(c3)N(C[C@@H]3CC[C@H]3[C@@H](OC)/C=C/C[C@H](C)C2)C[C@@]2(CCCc3cc(Cl)ccc32)CO4)cc1COC
Q: Lab note: check whether I or II has the lower measured pIC50. // output: label of the selected item
Result: I

###

- TARGET UNDER TEST: MCL-1/Bim interaction (recombinant human MCL-1 protein, residues 171-327; biotinylated human Bim peptide, residues 51-76) (Homo sapiens (Human))
- METHOD SUMMARY: MCL-1/Bim Binding AlphaLISA Assay
- SETTINGS: 0.0625 nM 6xHis-Mcl-1 (171-327), 0.0625 nM biotinylated-Bim peptide
pIC50: −log10 of the molar value.
REPORTED ENDPOINT: pIC50

# count of solved cases: 4
MOLECULE	pIC50
CC[C@@H]1CC/C=C/[C@H](OC)[C@@H]2CC[C@H]2CN2C[C@@]3(CCCc4cc(Cl)ccc43)COc3ccc(cc32)C(=O)N=[S@@]1(=O)NC(=O)CCc1ccnn1C	9.70
CO[C@H]1/C=C/CCC[S@@](=O)(NC(=O)COC2CCN(C(=O)N(C)C)CC2)=NC(=O)c2ccc3c(c2)N(C[C@@H]2CC[C@H]21)C[C@@]1(CCCc2cc(Cl)ccc21)CO3	10.04
CO[C@H]1/C=C/C[C@H](C)C[S@@](=O)(NC(=O)N[C@H]2C[C@@](O)(C(F)(F)F)C2)=NC(=O)c2ccc3c(c2)N(C[C@@H]2CC[C@H]21)C[C@@]1(CCCc2cc(Cl)ccc21)CO3	10.04
CO[C@H]1/C=C/C[C@H](C)C[S@@](=O)(NC(=O)N2CC(OC(=O)N3CCOCC3)C2)=NC(=O)c2ccc3c(c2)N(C[C@@H]2CC[C@H]21)C[C@@]1(CCCc2cc(Cl)ccc21)CO3	9.99

[1] CO[C@H]1/C=C/C[C@H](C)C[S@@](=O)(NC(=O)N[C@H]2C[C@](C)(OC)C2)=NC(=O)c2ccc3c(c2)N(C[C@@H]2CC[C@H]21)C[C@@]1(CCCc2cc(Cl)ccc21)CO3
[2] CO[C@H]1/C=C/C[C@H](C)C[S@@](=O)(NC(=O)c2cnn(C(F)F)c2)=NC(=O)c2ccc3c(c2)N(C[C@@H]2CC[C@H]21)C[C@@]1(CCCc2cc(Cl)ccc21)CO3
[3] CO[C@H]1/C=C/CCC[S@@](=O)(NC(=O)CCc2cc(C)nn2C)=NC(=O)c2ccc3c(c2)N(C[C@@H]2CC[C@H]21)C[C@@]1(CCCc2cc(Cl)ccc21)CO3
Q: List from greatest to least pIC50. Output spec: labels arranged per the requested ranking.
Result: 1, 2, 3
